tested.on: EPHB2 (UniProt P29323)
Sequence (P29323 whole entry, looked up): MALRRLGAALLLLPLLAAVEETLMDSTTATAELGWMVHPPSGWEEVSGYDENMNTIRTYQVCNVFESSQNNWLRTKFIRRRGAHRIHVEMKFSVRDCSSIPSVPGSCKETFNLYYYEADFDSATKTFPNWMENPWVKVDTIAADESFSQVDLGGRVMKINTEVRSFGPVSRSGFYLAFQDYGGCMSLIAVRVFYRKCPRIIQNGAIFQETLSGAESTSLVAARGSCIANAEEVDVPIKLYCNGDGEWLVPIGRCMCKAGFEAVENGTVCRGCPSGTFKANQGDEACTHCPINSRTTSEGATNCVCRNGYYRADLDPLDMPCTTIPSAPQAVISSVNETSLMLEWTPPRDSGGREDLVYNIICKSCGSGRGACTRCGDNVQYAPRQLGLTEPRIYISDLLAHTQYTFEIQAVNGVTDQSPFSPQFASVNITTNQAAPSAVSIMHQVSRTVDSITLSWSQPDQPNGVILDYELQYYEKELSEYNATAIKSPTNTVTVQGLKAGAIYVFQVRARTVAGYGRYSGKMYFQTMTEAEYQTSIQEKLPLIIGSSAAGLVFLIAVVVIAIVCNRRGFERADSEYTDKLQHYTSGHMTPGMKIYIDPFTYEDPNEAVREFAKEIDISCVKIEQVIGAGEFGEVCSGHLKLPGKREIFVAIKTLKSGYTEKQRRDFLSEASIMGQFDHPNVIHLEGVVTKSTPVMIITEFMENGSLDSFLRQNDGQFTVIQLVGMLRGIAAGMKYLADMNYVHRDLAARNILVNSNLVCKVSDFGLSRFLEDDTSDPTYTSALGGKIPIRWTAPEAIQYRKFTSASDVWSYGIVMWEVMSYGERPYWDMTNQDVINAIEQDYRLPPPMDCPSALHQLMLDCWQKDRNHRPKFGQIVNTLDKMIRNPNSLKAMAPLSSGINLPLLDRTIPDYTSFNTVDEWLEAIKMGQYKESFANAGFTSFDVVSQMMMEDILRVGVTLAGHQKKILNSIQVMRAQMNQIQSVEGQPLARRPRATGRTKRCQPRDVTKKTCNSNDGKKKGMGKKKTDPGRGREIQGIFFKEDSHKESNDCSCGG
assay.name: phosphorylation enrichment, bacterial display (enrichment ratio); higher = better substrate or ligand; peptides without Tyr show the background
property.label: phosphorylation enrichment
The reply should be a number, written without any unit.

Tell me the measured phosphorylation enrichment of GPRKAYELSQR [SETX_Y1297] , please.
0.328

Look up phosphorylation enrichment: TISPYYRQSLF [CRYAA_Y48]
0.474

// returns reported phosphorylation enrichment for input RIDRKYKKVRF [F8_Y442_G439D]
0.807

====

tested.on: c-Src SH2
assay.name: SH2 binding enrichment of the phosphorylated peptide, bacterial display (enrichment ratio); higher = better substrate or ligand; peptides without Tyr show the background
property.label: SH2 binding enrichment
Provide a numeric answer; units are not to be included.

Here's what some known entries look like.
>>> meas_value("VVKLAYNENDN [CAMKK2_Y183]")
0.408
>>> meas_value("TAALWYIFLHT [ENG_Y612_S615L_YF]")
0.593
>>> meas_value("QMVGMYASSSM [AVPR2_Y124_Y128S]")
0.685

Hi! What's the reported SH2 binding enrichment for SIKDKYVMALF [KCNH2_Y611_T613M_YF] on c-Src SH2?
0.699

Requested read-out SH2 binding enrichment, target or system c-Src SH2, entry RRNNSYTCFTA [SLC20A2_Y386_YF]
0.695

Which measured SH2 binding enrichment belongs to CSTIHYNYMCN [TP53_Y234_T230S] , tested on c-Src SH2?;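 further: peptide library displayed on the E. coli surface as eCPX fusions, selected cells deep-sequenced, score is each peptide's frequency after selection divided by its frequency in the input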
6.46

Under c-Src SH2: SH2 binding enrichment value of FKDGQYWIRGQ [ACSF3_Y466_R471Q] ?
0.592

Identify the measured SH2 binding enrichment of HILFRYPKEFQ [IDS_Y234_P231L] for c-Src SH2.
0.572

Recall the recorded SH2 binding enrichment for GEIQEYGAPSD [ABCC1_Y1508] with c-Src SH2 and state it.
0.507

Notebook entry, c-Src SH2 assay: SH2 binding enrichment of ETEMLYGSARR [PRC1_Y464_P468R] = ?
0.495

Give SH2 binding enrichment (c-Src SH2) of the following sequence: TVEDHDFEGGI [TKT_Y563_Y563D_YF]
0.422

====

tested.on: Hck (UniProt P08631)
Sequence (P08631 whole entry, looked up): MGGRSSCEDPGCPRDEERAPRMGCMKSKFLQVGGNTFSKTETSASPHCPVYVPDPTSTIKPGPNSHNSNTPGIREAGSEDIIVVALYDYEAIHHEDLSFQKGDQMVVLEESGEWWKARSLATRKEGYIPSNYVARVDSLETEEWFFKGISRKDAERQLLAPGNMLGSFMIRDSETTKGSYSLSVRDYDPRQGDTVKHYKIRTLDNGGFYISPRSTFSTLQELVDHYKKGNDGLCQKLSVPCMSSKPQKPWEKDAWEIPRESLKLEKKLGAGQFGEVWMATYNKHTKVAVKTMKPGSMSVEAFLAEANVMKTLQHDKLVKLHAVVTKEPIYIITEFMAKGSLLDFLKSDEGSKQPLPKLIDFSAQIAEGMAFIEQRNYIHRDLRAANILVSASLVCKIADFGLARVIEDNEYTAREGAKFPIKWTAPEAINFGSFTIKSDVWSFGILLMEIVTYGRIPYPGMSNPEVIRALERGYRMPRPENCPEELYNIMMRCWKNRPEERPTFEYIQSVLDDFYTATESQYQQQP
assay.name: phosphorylation enrichment, bacterial display (enrichment ratio); higher = better substrate or ligand; peptides without Tyr show the background
Reported phosphorylation enrichment values for a set of sequences
Keep the answer to the number alone.

>>> meas_value("QGGRCYMMIVD [GAA_Y438_R437C]")
0.769
>>> meas_value("GGDGSYVSVPL [TNNI3K_Y425_S430L]")
0.437
>>> meas_value("SVVVPYDPPEV [TP53_Y220_E221D]")
0.488
>>> meas_value("QDRTYYERVRT [SPEN_Y633_S635R]")
5.76
>>> meas_value("LRTAVYHEILI [CREBBP_Y1450]")
7.29
>>> meas_value("RISPEYKQNEI [GJB1_Y243_L239I]")
0.607

Shifting focus to the sequence that follows.
So what does the record say about phosphorylation enrichment for NREGVYTVSAP [TGFBI_Y537_F540S] ?
2.34

====

tested.on: Jak2 (UniProt O60674)
Sequence (O60674 whole entry, looked up): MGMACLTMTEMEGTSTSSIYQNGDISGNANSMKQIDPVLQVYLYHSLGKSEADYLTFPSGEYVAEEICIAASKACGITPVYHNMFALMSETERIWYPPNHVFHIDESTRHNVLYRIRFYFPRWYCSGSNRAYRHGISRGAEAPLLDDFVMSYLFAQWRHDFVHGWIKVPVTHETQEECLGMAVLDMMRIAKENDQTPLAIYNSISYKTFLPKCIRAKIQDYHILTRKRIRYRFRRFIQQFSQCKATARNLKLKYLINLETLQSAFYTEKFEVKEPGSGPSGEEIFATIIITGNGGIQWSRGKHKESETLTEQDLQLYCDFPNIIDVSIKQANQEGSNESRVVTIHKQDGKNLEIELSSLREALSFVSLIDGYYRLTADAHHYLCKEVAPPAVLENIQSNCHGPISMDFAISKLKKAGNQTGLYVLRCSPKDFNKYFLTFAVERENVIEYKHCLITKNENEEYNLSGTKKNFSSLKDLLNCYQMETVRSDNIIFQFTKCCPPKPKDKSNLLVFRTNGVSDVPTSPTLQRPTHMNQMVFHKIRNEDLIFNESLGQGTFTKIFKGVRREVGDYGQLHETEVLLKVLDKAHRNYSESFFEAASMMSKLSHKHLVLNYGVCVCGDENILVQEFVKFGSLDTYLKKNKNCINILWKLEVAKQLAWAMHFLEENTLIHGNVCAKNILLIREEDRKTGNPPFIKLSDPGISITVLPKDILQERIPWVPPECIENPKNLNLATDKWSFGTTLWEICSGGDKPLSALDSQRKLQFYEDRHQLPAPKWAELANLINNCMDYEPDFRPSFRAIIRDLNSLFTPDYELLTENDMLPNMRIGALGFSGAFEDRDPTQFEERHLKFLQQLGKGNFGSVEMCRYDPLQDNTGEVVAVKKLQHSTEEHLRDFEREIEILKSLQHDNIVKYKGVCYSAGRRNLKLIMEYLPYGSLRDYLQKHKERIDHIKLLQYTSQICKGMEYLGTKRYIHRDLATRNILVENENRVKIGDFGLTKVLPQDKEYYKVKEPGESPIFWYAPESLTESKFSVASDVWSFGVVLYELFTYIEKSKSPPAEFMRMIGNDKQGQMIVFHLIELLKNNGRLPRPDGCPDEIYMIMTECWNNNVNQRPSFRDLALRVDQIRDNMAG
assay.name: phosphorylation enrichment, bacterial display (enrichment ratio); higher = better substrate or ligand; peptides without Tyr show the background
Listed sequences paired with reported phosphorylation enrichment
Form field (numeric): enter value without unit.

As a guide, the following entries are already answered.
>>> meas_value("VTRKEYFIFLE [CAMKV_Y95]")
1.01
>>> meas_value("WRPFGYPHRRR [BCS1L_Y181_R183H]")
0.509
>>> meas_value("FMCKVYSDRQP [FGFR1_Y280_P283R]")
1.35
>>> meas_value("AHAGGYGAEAL [HBA1_Y25_E24G]")
0.559
>>> meas_value("TAALWYIFLHT [ENG_Y612_S615L_YF]")
1.48
>>> meas_value("QDGFSYLSRQM [LDLR_Y847_P848L_YF]")
0.844
>>> meas_value("SSSGAYGGGYG [KRT19_Y61]")
0.346
>>> meas_value("EARRVYGDIIF [ALDH5A1_Y175_H180Y_YF]")
0.719
>>> meas_value("LDMSQYFRLFN [CPT2_Y217]")
4.15
>>> meas_value("ILTFKYLQIPM [KIT_Y547_K550I_YF]")
1.02

Could you tell me which phosphorylation enrichment is on file for GRDQPYSGTGD [TYRO3_Y828_A831T] ?
0.713

Please give the measured phosphorylation enrichment for this sequence: GPRKAYELSQR [SETX_Y1297]
0.558

What value of measured phosphorylation enrichment is listed for ETVHRYVELLD [AP1S3_Y87_I83T] ?
0.752

src = the supplement of paper PMC10065799
